system: Saccharomyces cerevisiae; assay: protein stability index of tFT-peptide fusion (C-terminal peptide) (PSI (0-1 scale)); higher = more stable (slower turnover); details: genetic background: wild type; temperature: 30 C
MEASURE NAME: protein stability index

[[record]]
construct_sequence = "LCGAPNCKGFLN [SET1 C-terminal 12 aa]"
reported_result = 0.671

[[record]]
construct_sequence = "AYQITKRGIETA [RAD57 C-terminal 12 aa]"
reported_result = 0.695

[[record]]
construct_sequence = "PCTASITSLISF [YDR269C C-terminal 12 aa]"
reported_result = 0.731

[[record]]
construct_sequence = "CAVDAIFYWLLM [GMC1 C-terminal 12 aa]"
reported_result = 0.486

[[record]]
construct_sequence = "HHNQIGVPRVEN [GID8 C-terminal 12 aa]"
reported_result = 0.674

[[record]]
construct_sequence = "DLKKLIWNEIFS [FUS3 C-terminal 12 aa]"
reported_result = 0.684

[[record]]
construct_sequence = "IQYYEEILRRGL [SPP1 C-terminal 12 aa]"
reported_result = 0.677

[[record]]
construct_sequence = "HNLHSYEKRLYN [IMD4 C-terminal 12 aa]"
reported_result = 0.672

[[record]]
construct_sequence = "SKRVYSICHYEF [ABM1 C-terminal 12 aa]"
reported_result = 0.695

[[record]]
construct_sequence = "EVPGWQEYYDKL [YOR133W; YDR385W C-terminal 12 aa]"
reported_result = 0.71

[[record]]
construct_sequence = "TSQEINDRLEAL [PRE8 C-terminal 12 aa]"
reported_result = 0.643

[[record]]
construct_sequence = "IIQKETQSAGDK [PZF1 C-terminal 12 aa]"
reported_result = 0.678

